Origin of values: patent US5846516A

experiment: Growth and viability of Namalva cell cultures; assay type: cell-based; settings: human, namalva cells, 1 g/L
# activity per entry

Compound	Quantity unit	activity
O=P(O)(OCCC(F)(F)C(F)(F)C(F)(F)C(F)(F)C(F)(F)C(F)(F)F)OC[C@H]1OC(O)[C@H](O)[C@@H](O)[C@@H]1O (some centres unmarked) [Compound 7a]	%	51
O=P(O)(OCCC(F)(F)C(F)(F)C(F)(F)C(F)(F)C(F)(F)C(F)(F)C(F)(F)C(F)(F)F)OC[C@H]1OC(O)[C@H](O)[C@@H](O)[C@@H]1O (some centres unmarked) [Compound 7b]	%	76

----------
experiment: Hemolysis of red blood cells; type: cell-based, human; conditions: human; 100 g/L; solution added to an equal volume of 1% washed red blood cells in saline; read-out: Hemolysis, % hem.
Observation type: hemolysis (%)

                                   compound  observation_type  quantity_unit  measurement
0  O=P(O)(OCCC(F)(F)C(F)(F)C(F)(F)C(F)(F)C(F)(F)C(F)(F)F)OC[C@H]1OC(O)[C@H](O)[C@@H](O)[C@@H]1O (stereo partly shown)         hemolysis              %            0

----------
The reader will find reported solubility values listed item by item below.
assay: Dispersibility in water at 25° C.
Observation type: solubility (mg/mL)

Molecule	Observation type	Quantity unit	Measurement
O=P(O)(OCCC(F)(F)C(F)(F)C(F)(F)C(F)(F)C(F)(F)C(F)(F)C(F)(F)C(F)(F)F)O[C@H]1[C@H](O)[C@@H](CO)OC(O)[C@@H]1O (some centres unmarked)	solubility	mg/mL	250
O=P(O)(OCCC(F)(F)C(F)(F)C(F)(F)C(F)(F)C(F)(F)C(F)(F)F)OC[C@H]1OC(O)[C@H](O)[C@@H](O)[C@@H]1O (some centres unmarked)	solubility	mg/mL	350

----------
Overview of reported viability across a group of molecules:
test: Growth and viability of Namalva cell cultures; format: cell-based; conditions: human; Namalva cells, 1 g/L

Molecule	Quantity unit	viability
O=P(O)(OCCC(F)(F)C(F)(F)C(F)(F)C(F)(F)C(F)(F)C(F)(F)C(F)(F)C(F)(F)F)OC[C@H]1OC(O)[C@H](O)[C@@H](O)[C@@H]1O (some centres unmarked)	%	104
O=P(O)(OCCC(F)(F)C(F)(F)C(F)(F)C(F)(F)C(F)(F)C(F)(F)F)OC[C@H]1OC(O)[C@H](O)[C@@H](O)[C@@H]1O (some centres unmarked)	%	97

----------
test: Toxicity in mice after intravenous injection (LD50, survival); assay type: in vivo; conditions: mouse, in vivo; intravenous injection into mice

Compound	LD50
O=P(O)(OCCC(F)(F)C(F)(F)C(F)(F)C(F)(F)C(F)(F)C(F)(F)F)OC[C@H]1OC(O)[C@H](O)[C@@H](O)[C@@H]1O (stereo partly shown) [Compound 7a]	~750 mg/kg

----------
Assay: Hemolysis of red blood cells
Format: cell-based, human
Conditions: human; 30 g/L, dispersed in a 20 g/L Pluronic F68 solution; added to an equal volume of 1% washed red blood cells in saline; read-out: Hemolysis, % hem.
Method: Compound 22 is non-hemolytic at a 50 g/L concentration, and its LD50 is higher than 2000 mg/kg in intravenous injection into mice. […] Furthermore, these derivatives show a higher i.v. tolerance than the single-chain compounds disclosed in WO 90/15807 C (25 ≤LD50 ≤125 mg/kg bw). *solution added to an equal volume of a suspension, at 1% concentration o washed red blood cells in saline.
Observation type: hemolysis (%)

Compound	Measurement
O=P(O)(OCCC(F)(F)C(F)(F)C(F)(F)C(F)(F)C(F)(F)C(F)(F)C(F)(F)C(F)(F)F)OC[C@H]1OC(O)[C@H](O)[C@@H](O)[C@@H]1O (stereo partly shown)	0
